Observable: logP

1) COC(=O)C1(S(=O)(=O)c2ccc(Cl)cc2)CC1
2.03

[P] CC(C)OC(=O)C1(S(=O)(=O)c2ccc(Cl)cc2)CCCCCC1
[Q] CC(C)(C)OC(=O)C1(S(=O)(=O)c2ccc(Cl)cc2)CC1
Query string: Identify the entry with the larger logP. Options: P and Q Record your answer as the label of the chosen record.
Result string: P

====

Assay: method code SF-AS, from DOI: 10.1016/0045-6535(94)00381-4
Observable: logP

1) CC(C)OC(=O)C1(S(=O)(=O)c2ccc([N+](=O)[O-])cc2)CCCCCC1
3.41
2) COC(=O)C1(S(=O)(=O)c2ccc([N+](=O)[O-])cc2)CC1
1.33
3) Cc1ccc(S(=O)(=O)C2(C(=O)OC(C)C)CC2)cc1
2.52
4) COC(=O)C1(S(=O)(=O)c2ccccc2)CCC1
1.63
5) CC(C)OC(=O)C1(S(=O)(=O)c2ccc(Cl)cc2)CC1
2.64
6) COC(=O)C1(S(=O)(=O)c2ccc(C)cc2)CC1
1.77
7) Cc1ccc(S(=O)(=O)C2(C(=O)OC(C)C)CCCC2)cc1
2.88
8) COC(=O)C1(S(=O)(=O)c2ccc(Br)cc2)CCCCC1
2.94

[I] CC(C)OC(=O)C1(S(=O)(=O)c2ccc([N+](=O)[O-])cc2)CCC1
[II] COC(=O)CS(=O)(=O)c1ccc(Cl)cc1
Query string: Identify the entry with the larger logP. Options: I and II Record your answer as the label of the chosen record.
Result string: I
(I: 2.36, II: 1.31)
